For each of the compounds below, state its Percentage reduction of lipids: Cholesterol.
test system: rats treated with Triton WR-1339; assay: Hypolipemic action on the rat, Triton WR-1339 method; format: in vivo; details: Table VI; with respect to Triton WR-1339; 2 mMoles/Kg orally
// units = %; emit number, no label

Short answer for Cc1ccc(S(=O)(=O)Oc2ccc(OS(=O)(=O)c3ccc(C)cc3)c(S(=O)(=O)O)c2)cc1 : Percentage reduction of lipids: Cholesterol was 17

Reported Percentage reduction of lipids: Cholesterol ( Cc1ccc(S(=O)(=O)Oc2ccc(O)c(S(=O)(=O)O)c2)cc1 [pyridine 2,5-dihydroxybenzenesulfonate monotosylate] ) = 18

// Percentage reduction of lipids: Cholesterol lookup, compound = Cc1ccc(S(=O)(=O)Oc2ccc(O)c(S(=O)(=O)O)c2)cc1 [piperazine bis(2,5-dihydroxybenzenesulfonate monotosylate)] , result: 11

// Percentage reduction of lipids: Cholesterol lookup, compound = O=C(Oc1ccc(OC(=O)c2ccccc2)c(S(=O)(=O)O)c1)c1ccccc1 [piperidine 2,5-dihydroxybenzenesulfonate dibenzoate] , result: 14

Reported Percentage reduction of lipids: Cholesterol for Cc1ccc(S(=O)(=O)Oc2ccc(O)c(S(=O)(=O)O)c2)cc1 [sodium 2,5-dihydroxybenzenesulfonate monotosylate] was 10

According to the records, this compound Cc1ccc(S(=O)(=O)Oc2ccc(O)c(S(=O)(=O)O)c2)cc1 [morpholine 2,5-dihydroxybenzenesulfonate monotosylate] displays Percentage reduction of lipids: Cholesterol of 12

O=C(Oc1ccc(OC(=O)c2ccccc2)c(S(=O)(=O)O)c1)c1ccccc1 [morpholine 2,5-dihydroxybenzenesulfonate dibenzoate] has a reported Percentage reduction of lipids: Cholesterol of 12

Sure, the documented Percentage reduction of lipids: Cholesterol for O=C(Oc1ccc(OC(=O)c2ccccc2)c(S(=O)(=O)O)c1)c1ccccc1 [diethylamine 2,5-dihydroxybenzenesulfonate dibenzoate] is 12
